# Test system: CD2F1 mice, L1210 leukemia ip, survival T/C
# ASSAY_TEXT: NCI In Vivo Anticancer Drug Screen. Data for tumor model L1210 Leukemia (intraperitoneal) in CD2F1 (CDF1) mice
# SETTINGS: endpoint: mean survival time; dose: 200.0 mg/kg/injection; schedule: Q04DX002 (ip); vehicle: saline; higher = longer survival
Toxic doses and inconclusive results are not listed.
Readings of T/C for the listed compounds

Lab request: please report T/C under test system CD2F1 mice, L1210 leukemia ip, survival T/C for Cn1c(N)c(N)c(=O)n(C)c1=O
102 % of control

For CD2F1 mice, L1210 leukemia ip, survival T/C, provide T/C of CC1COC(C(=O)O)(c2ccccc2)O1 (stereo not given) please.
108 % of control

Can you look up T/C on CD2F1 mice, L1210 leukemia ip, survival T/C for CC(=O)Nc1nnc(Cl)s1 ?
97 % of control

Identify the measured T/C of CN1C2CCC1CC(O)C2 (stereo not given) for CD2F1 mice, L1210 leukemia ip, survival T/C.
109 % of control

# next compound below
Notebook entry, CD2F1 mice, L1210 leukemia ip, survival T/C assay: T/C of O=C(OC(=O)C(F)(F)C(F)(F)F)C(F)(F)C(F)(F)F = ?
103 % of control

----------
# System: CD2F1 mice, L1210 leukemia ip, survival T/C
# ASSAY_TEXT: NCI In Vivo Anticancer Drug Screen. Data for tumor model L1210 Leukemia (intraperitoneal) in CD2F1 (CDF1) mice
# SETTINGS: endpoint: mean survival time; dose: 100.0 mg/kg/injection; schedule: Q04DX003 (ip); vehicle: saline with Tween-80; higher = longer survival
Inconclusive results and toxic doses are left out.
VALUE_TYPE: T/C

Some solved entries appear below for comparison.
Request body: readout T/C, system CD2F1 mice, L1210 leukemia ip, survival T/C, query O=C(O)CCS(=O)(=O)CCC(=O)O . Return the value.
92 % of control

Tell me reported T/C for CCCC(C)C1(CC)NC(C)(C)CC(C)O1 (centres undefined) , tested with CD2F1 mice, L1210 leukemia ip, survival T/C.
103 % of control

Look up T/C with CD2F1 mice, L1210 leukemia ip, survival T/C for this molecule: CCCCCC/C=C\C(=O)O
98 % of control

***
Form field: T/C recorded for CC1=CC=CC2=NC(=O)CCN12 with CD2F1 mice, L1210 leukemia ip, survival T/C (enter value)
105 % of control

What reported T/C corresponds to COC(=O)C1C(O)C(C)C(O)C(C)/C=C\C=C(C)C(=O)Nc2c(C)c(OC(C)=O)c3c(c2O)C(=O)C(C)=C2OCOC(=C23)C(C)=CC(C)(O)C(O)C(C)C1O (centres undefined) on CD2F1 mice, L1210 leukemia ip, survival T/C?
98 % of control

Please state recorded T/C (tested on CD2F1 mice, L1210 leukemia ip, survival T/C) of Oc1c(Br)cc(Br)c(O)c1Br
97 % of control

Record lookup: for CD2F1 mice, L1210 leukemia ip, survival T/C, what T/C belongs to Nc1ccc(CNC(=O)Nc2ccc(S(=O)(=O)F)cc2)cc1 ?
110 % of control

----------
A collection of molecules and their measured T/C
# System: CD2F1 mice, L1210 leukemia ip, survival T/C
# ASSAY_TEXT: NCI In Vivo Anticancer Drug Screen. Data for tumor model L1210 Leukemia (intraperitoneal) in CD2F1 (CDF1) mice
# SETTINGS: endpoint: mean survival time; dose: 100.0 mg/kg/injection; schedule: Q04DX003 (ip); vehicle: saline with Tween-80; higher = longer survival
Toxic doses and inconclusive results are not listed.

Illustrative cases are given below, each with its answer.
I have this molecule here, O=S(=O)(Oc1ccccc1)c1c(F)c(F)c(F)c(F)c1F , and I need its recorded T/C.
95 % of control

Given O=C1C=CC(O)CCC1 (stereo not given) (tested in a mixture with another compound) , state its recorded T/C.
101 % of control

Form field: reported T/C of C=CCNC(=O)c1ccc[n+](CC(=O)Nc2ccccc2)c1
103 % of control

Continuing:
Fill in the blank: the reported T/C of CC(Br)C(=O)NC(CC(N)=O)C(=O)O (stereo not given) is ____.
102 % of control

Reported T/C for Cc1ccc(NC(=O)c2ccccc2C(=O)O)cc1C : what is it?
100 % of control

// returns reported T/C for input O=C(c1ccccc1)N(C(=O)c1ccccc1)C1CCCCC1
100 % of control

# T/C lookup, item Cc1ccccc1NC(=O)c1cc2ccccc2cc1O
102 % of control

----------
# Tested on: CD2F1 mice, L1210 leukemia ip, survival T/C
# ASSAY_TEXT: NCI In Vivo Anticancer Drug Screen. Data for tumor model L1210 Leukemia (intraperitoneal) in CD2F1 (CDF1) mice
# SETTINGS: endpoint: mean survival time; dose: 400.0 mg/kg/injection; schedule: Q04DX003 (ip); vehicle: saline with Tween-80; higher = longer survival
Inconclusive results and toxic doses are left out.
// reported T/C per item

Any idea what T/C was measured for CC(C)OC(=O)Nc1ccc(F)cc1F ?
98 % of control

Can you look up the measured T/C of COc1ccc(/C=N\N2C(=O)/C(=C\c3ccc(OC)cc3)SC2=S)cc1 for me?
89 % of control

Quick check: T/C of O=C(O)CCS(=O)(=O)CCC(=O)O ?
90 % of control

Please look up its T/C: Clc1nc(Oc2ccccc2)nc(-c2cn(-c3ccccc3)c3ccccc23)n1
101 % of control

Which value of T/C has been reported for Cc1cccc(NC(=O)NCCBr)c1 in the records?
92 % of control

Which value of T/C has been reported for N/N=C1/C(=O)c2cccc3cccc1c23 in the records?
92 % of control

Bench note: what T/C did Cc1cc(CC(O)(C(F)(F)F)C(F)(F)F)cc(C(=O)O)n1 show?
87 % of control

Can you look up the measured T/C of CC(C)(C)OC(=O)CCC(NC(=O)OC(C)(C)C)C(=O)O (stereo unspecified) for me?
95 % of control

Suppose we examine the molecule O=C(O)c1ccccc1S(=O)(=O)c1ccccc1 ; what T/C value has been reported?
95 % of control

So what's the measured T/C for this one? CCOC(CC)C(O)(c1ccc(N(C)C)cc1)c1ccc(N(C)C)cc1 (stereo unspecified)
94 % of control

Returns the measured T/C for the input molecule. Input: Cc1cc(C)[nH]n1
97 % of control

----------
# System: CD2F1 mice, L1210 leukemia ip, survival T/C
# ASSAY_TEXT: NCI In Vivo Anticancer Drug Screen. Data for tumor model L1210 Leukemia (intraperitoneal) in CD2F1 (CDF1) mice
# SETTINGS: endpoint: mean survival time; dose: 100.0 mg/kg/injection; schedule: Q01DX009 (ip); vehicle: saline with Tween-80; higher = longer survival
# Method: The antitumor activity of compounds was measured in mice bearing transplantable tumors. Survival or tumor size were measured and the results are expressed as the measurement made in the treated group (T) divided by the measurement made in the vehicle treated control group (C). The tumor model used in this assay is L1210 Leukemia (intraperitoneal) in CD2F1 (CDF1) mice
Inconclusive results and toxic doses are left out.
VALUE_TYPE: T/C

These recorded examples may help you get a feel for the data.
Fill in the blank: the reported T/C of CCOC(=O)C(C#N)N=Nc1ccccc1 (stereo unspecified) is ____.
95 % of control

Please give the measured T/C for this molecule: Cc1cccc(Cl)c1NC(=O)Nc1ccc(C(=O)O)c(O)c1
97 % of control

Which T/C reading was recorded for the molecule Clc1cccc(-n2ccnc2)c1 ?
109 % of control

Others:
What measured T/C goes with CC(C)N=C1C([O-])=N[N+](C)(C)N1C(C)C ?
106 % of control

So what's the measured T/C for this one? O=C(NC1CCC(CC2CCCCC2)CC1)c1ccccc1 (stereo unspecified)
100 % of control

Returns the measured T/C for the input molecule. Input: CC(C)NC(=O)OCc1c(COC(=O)NC(C)C)c(-c2ccc(Cl)c(Cl)c2)n2c1CCC2
89 % of control

----------
Consider the following compounds and their measured T/C readings.
# System: CD2F1 mice, L1210 leukemia ip, survival T/C
# ASSAY_TEXT: NCI In Vivo Anticancer Drug Screen. Data for tumor model L1210 Leukemia (intraperitoneal) in CD2F1 (CDF1) mice
# SETTINGS: endpoint: mean survival time; dose: 200.0 mg/kg/injection; schedule: Q01DX005 (ip); vehicle: other; higher = longer survival
Inconclusive results and toxic doses are left out.

# query: T/C of entry Nc1nc(=S)c2[nH]c(-c3ccccc3)nc2[nH]1
90 % of control

T/C lookup needed for CN(C)c1nc(N)c2nonc2n1 , thanks.
95 % of control

I'd like to know its T/C. The compound in question is Nc1ccc(-c2nc(=S)c3cn[nH]c3[nH]2)cc1
95 % of control

Further cases:
Sample N#CC1=C(NC2OCC(O)C(O)C2O)CCC1 (centres undefined) — what was its T/C?
89 % of control

These measurements were taken from PubChem BioAssay AID256.
